SYSTEM: T1, Gal4 transcriptional activation domain (AD) fused in frame with AR (yeast, UniProt P10275 1-920, limits assumed); also: unit not given here
T1 sequence (looked up): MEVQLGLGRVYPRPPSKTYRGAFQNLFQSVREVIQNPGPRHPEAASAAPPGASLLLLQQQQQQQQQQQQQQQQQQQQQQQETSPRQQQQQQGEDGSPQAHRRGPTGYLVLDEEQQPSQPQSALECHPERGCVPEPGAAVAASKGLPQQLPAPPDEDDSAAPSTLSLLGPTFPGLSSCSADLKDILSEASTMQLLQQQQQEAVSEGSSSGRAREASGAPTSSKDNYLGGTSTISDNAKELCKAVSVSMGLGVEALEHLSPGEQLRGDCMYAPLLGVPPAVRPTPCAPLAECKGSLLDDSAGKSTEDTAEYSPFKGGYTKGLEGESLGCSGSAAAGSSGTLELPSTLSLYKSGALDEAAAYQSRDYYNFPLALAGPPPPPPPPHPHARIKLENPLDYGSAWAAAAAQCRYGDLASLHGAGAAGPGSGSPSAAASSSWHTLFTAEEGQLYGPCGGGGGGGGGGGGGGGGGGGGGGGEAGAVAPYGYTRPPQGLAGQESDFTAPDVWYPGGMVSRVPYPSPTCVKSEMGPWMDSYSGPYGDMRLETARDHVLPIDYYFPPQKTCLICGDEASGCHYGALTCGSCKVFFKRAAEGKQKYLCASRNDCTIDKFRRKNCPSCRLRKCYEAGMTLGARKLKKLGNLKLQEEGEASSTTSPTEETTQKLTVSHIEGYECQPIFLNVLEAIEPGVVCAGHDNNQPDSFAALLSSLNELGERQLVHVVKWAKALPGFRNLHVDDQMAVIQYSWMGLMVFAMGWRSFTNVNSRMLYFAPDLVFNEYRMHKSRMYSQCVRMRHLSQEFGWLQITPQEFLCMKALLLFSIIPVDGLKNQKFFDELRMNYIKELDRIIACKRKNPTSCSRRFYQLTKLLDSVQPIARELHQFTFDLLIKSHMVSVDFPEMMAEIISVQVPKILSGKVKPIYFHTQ
EXPERIMENT: cell-based or functional assay
VALUE TYPE: β-galactosidase activity (yeast two-hybrid), No Lig

[Q] Given the entry B8A10 (peptide) MKLLSSIEQACDICRLKKLKCSKEKPKCAKCLKNNWECRYSPKTKRSPLTRAHLTEVESRLERLEQLFLLIFPREDLDMILKMDSLQDIKALLTGLFVQDNVNKDAVTDRLASVETDMPLTLRQHRISATSSSEESSNKGQRQLTVSEFVNWDAVVPWSELVALLDLQPS , report its measured β-galactosidase activity (yeast two-hybrid), No Lig.
[A] 0.875
